- Procedure text: Acute toxicity, LD50
- Condition description: mouse, in vivo; mice; 0.9% NaCl + cremophor 20%
Below, each of the compounds is paired with its reported LD50 value.

The following compounds have reported results that may help.
{"Compound": "Cc1cc(OCCCSC(=N)N)cc(OS(=O)(=O)c2ccccc2)c1.I [HC-018s-IOC]", "LD50": "< 441 mg/kg"}
{"Compound": "Cc1cc(OCCSC(=N)N)cc(OS(=O)(=O)c2ccccc2)c1 [HC-020s-IOC]", "LD50": "> 1110 mg/kg"}
{"Compound": "Cc1cc(OCC[n+]2ccc(N)cc2)cc(OS(=O)(=O)c2ccccc2)c1 [HC-019s-IOC]", "LD50": "> 278 mg/kg"}

Now let's try a different one.
// recorded LD50 for CNc1ccc(S(=O)(=O)N(C)c2ccccc2)cc1NC(=O)CC[n+]1ccc(N)cc1.[Cl-] : 257 mg/kg
